meta.source: ChEMBL document CHEMBL1145305

molecular target: Beta-secretase 1 (Homo sapiens); assay: Inhibition of BACE1 expressed in HEK293 cells at 100 uM; type: cell-based
Sequence (P56817 whole entry): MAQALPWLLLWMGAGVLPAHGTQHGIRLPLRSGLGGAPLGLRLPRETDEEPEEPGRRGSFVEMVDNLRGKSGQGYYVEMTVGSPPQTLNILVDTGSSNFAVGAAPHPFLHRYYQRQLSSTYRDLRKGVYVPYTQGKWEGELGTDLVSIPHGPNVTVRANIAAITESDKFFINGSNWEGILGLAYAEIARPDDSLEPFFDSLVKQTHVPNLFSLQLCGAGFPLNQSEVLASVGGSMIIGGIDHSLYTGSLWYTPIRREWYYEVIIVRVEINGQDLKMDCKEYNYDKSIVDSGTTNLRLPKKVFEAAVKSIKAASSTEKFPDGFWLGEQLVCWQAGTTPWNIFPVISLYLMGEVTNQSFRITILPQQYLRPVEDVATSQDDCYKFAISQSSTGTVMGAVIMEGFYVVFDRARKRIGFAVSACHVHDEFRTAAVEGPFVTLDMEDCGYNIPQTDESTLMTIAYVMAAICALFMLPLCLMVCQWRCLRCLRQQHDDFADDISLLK
readoutType: inhibition (%)

CC(C)C[C@H](NC(=O)[C@@H](NC(=O)[C@@H](N)CNC(=O)c1cccc(O)c1O)C(C)C)C(=O)N[C@@H](Cc1ccccc1)[C@@H](O)C(=O)Nc1cccc(C(=O)O)c1: 0
CC(C)C[C@H](NC(=O)[C@@H](NC(=O)[C@@H](N)CNC(=O)c1cc(O)nc(O)n1)C(C)C)C(=O)N[C@@H](Cc1ccccc1)[C@@H](O)C(=O)Nc1cccc(C(=O)O)c1: 46
CC(C)C[C@H](NC(=O)[C@@H](NC(=O)[C@@H](N)CNC(=O)c1ccoc1)C(C)C)C(=O)N[C@@H](Cc1ccccc1)[C@@H](O)C(=O)Nc1cccc(C(=O)O)c1: 4

(1) CC(C)[C@H](NC(=O)[C@@H](N)CNC(=O)c1[nH]c(=O)[nH]c(=O)c1F)C(=O)N[C@@H](CC1CCCCC1)C(=O)N[C@@H](Cc1ccccc1)[C@@H](O)C(=O)Nc1cccc(-c2nn[nH]n2)c1
(2) CC(C)C[C@H](NC(=O)[C@@H](NC(=O)[C@@H](N)CNC(=O)c1ccccc1O)C(C)C)C(=O)N[C@@H](Cc1ccccc1)[C@@H](O)C(=O)Nc1cccc(C(=O)O)c1
Of the two listed items, which has the higher inhibition? First: 1 Second: 2 Choose, then provide that item's label. 1

(I) CC(C)C[C@H](NC(=O)[C@@H](NC(=O)[C@@H](N)CNC(=O)c1nc(O)nc(O)c1F)C(C)C)C(=O)N[C@@H](Cc1ccccc1)[C@@H](O)C(=O)Nc1cccc(C(=O)O)c1
(II) CC(C)C[C@H](NC(=O)[C@@H](NC(=O)[C@@H](N)CNC(=O)c1ccc(O)cc1O)C(C)C)C(=O)N[C@@H](Cc1ccccc1)[C@@H](O)C(=O)Nc1cccc(C(=O)O)c1
Of the two listed items, which has the higher inhibition? First: I Second: II Choose, then provide that item's label. I
(I: 76%, II: 20%)
